- Assay target: EPHB1 (UniProt P54762)
- Sequence (P54762 whole entry, looked up): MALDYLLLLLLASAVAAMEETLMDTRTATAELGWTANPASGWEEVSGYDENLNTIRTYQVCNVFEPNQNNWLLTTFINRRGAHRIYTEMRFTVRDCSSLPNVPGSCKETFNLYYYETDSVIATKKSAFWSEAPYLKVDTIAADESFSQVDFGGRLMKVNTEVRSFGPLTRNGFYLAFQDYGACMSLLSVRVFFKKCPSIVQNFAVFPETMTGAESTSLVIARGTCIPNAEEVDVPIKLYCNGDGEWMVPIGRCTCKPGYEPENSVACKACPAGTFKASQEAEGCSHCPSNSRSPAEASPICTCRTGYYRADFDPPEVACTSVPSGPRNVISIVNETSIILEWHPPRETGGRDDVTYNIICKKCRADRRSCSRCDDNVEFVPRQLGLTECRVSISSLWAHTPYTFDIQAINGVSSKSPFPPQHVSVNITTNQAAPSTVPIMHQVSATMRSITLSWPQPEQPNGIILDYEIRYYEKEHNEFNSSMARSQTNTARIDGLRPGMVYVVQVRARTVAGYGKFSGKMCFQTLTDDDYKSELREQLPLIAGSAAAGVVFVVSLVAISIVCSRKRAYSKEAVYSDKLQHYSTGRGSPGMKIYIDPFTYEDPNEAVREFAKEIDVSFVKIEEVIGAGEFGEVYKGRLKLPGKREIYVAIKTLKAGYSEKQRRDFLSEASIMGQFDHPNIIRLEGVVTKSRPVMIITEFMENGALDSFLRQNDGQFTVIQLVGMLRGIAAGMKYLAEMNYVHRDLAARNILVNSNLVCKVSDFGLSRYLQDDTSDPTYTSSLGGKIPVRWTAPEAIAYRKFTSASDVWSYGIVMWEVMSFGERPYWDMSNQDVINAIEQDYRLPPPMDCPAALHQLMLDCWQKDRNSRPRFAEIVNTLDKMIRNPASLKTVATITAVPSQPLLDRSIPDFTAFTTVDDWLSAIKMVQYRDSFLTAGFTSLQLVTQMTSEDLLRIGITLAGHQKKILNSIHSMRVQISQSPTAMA
- Measurement protocol: phosphorylation enrichment, bacterial display (enrichment ratio); higher = better substrate or ligand; peptides without Tyr show the background;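 note: 11-residue human phosphosite peptides and single-mutation variants displayed on the E. coli surface, counted by deep sequencing, each peptide's frequency after selection divided by its frequency in the unselected input library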;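 note: frequency after pTyr selection over input frequency; kinase dosed for 20-30% of maximal phosphorylation in three min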
Give measured phosphorylation enrichment for each item. Keep answers brief.
Reply with the value as a number alone.

[Q] Recall the recorded phosphorylation enrichment for SLFPGYNFRFA [P2RX7_Y291_YF] with EPHB1 (UniProt P54762) and state it.
[A] 0.614

[Q] Can you look up phosphorylation enrichment on EPHB1 (UniProt P54762) for LMVFEYMRHGN [NTRK1_Y591_D596N] ?
[A] 0.797

[Q] For EPHB1 (UniProt P54762), provide phosphorylation enrichment of RFVTRSIFNRE [HLA-DQB1_Y62_Y62S_YF] please.
[A] 0.61

[Q] Query phosphorylation enrichment on EPHB1 (UniProt P54762) for IHYPPYTDWNQ [ALDH3B2_Y365]
[A] 0.527

[Q] Under EPHB1 (UniProt P54762): phosphorylation enrichment value of VFPIDYFFPPQ [AR_Y552_L548F_YF] ?
[A] 1.19

[Q] Look up phosphorylation enrichment with EPHB1 (UniProt P54762) for this sequence: CTTIHYNYMYN [TP53_Y234_C238Y]
[A] 0.945

[Q] API: value(readout= phosphorylation enrichment, system= EPHB1 (UniProt P54762), query= RALCHYYKLNI [ETV6_Y401_R399C] )
[A] 1.09

[Q] GET /values?readout=phosphorylation enrichment&system=EPHB1 (UniProt P54762)&item= KSPDSYQKILL [ATM_Y1415]
[A] 0.397

[Q] Item EQQNMYRLKVL [ABCC6_Y372] with EPHB1 (UniProt P54762) - phosphorylation enrichment?
[A] 0.56

[Q] Lab note: need phosphorylation enrichment with EPHB1 (UniProt P54762) for entry SGLDSYVRSLP [TRAPPC1_Y133_R129G] , please look it up.
[A] 0.379

[Q] # value lookup — system EPHB1 (UniProt P54762), readout phosphorylation enrichment, item STEAIYRRYSK [SH3PXD2B_Y42]
[A] 0.302

[Q] Lab note: need phosphorylation enrichment with EPHB1 (UniProt P54762) for entry NTEGGYRCICA [CRELD1_Y328] , please look it up.
[A] 0.496

[Q] Param readout= phosphorylation enrichment; system= EPHB1 (UniProt P54762); entry= AMGAVYQAAAL [HYOU1_Y421] ; returns value.
[A] 0.534

[Q] Report phosphorylation enrichment for DGQSVYKLTDF [TBK1_Y153] tested on EPHB1 (UniProt P54762).
[A] 0.426

[Q] Under EPHB1 (UniProt P54762): phosphorylation enrichment value of AHEALYLEADL [CENPF_Y1920_E1915A] ?
[A] 0.781

[Q] # returns recorded phosphorylation enrichment (system: EPHB1 (UniProt P54762)) for PEFVVYKPQME [CCRL2_Y170]
[A] 1.12

[Q] State its phosphorylation enrichment on EPHB1 (UniProt P54762): AKRKGYDMQVD [NEB_Y2770_R2773Q]
[A] 0.257

[Q] Find phosphorylation enrichment (EPHB1 (UniProt P54762)) for the entry SGIYQYSIAKF [FOXL2_Y83_I84S]
[A] 4.84

[Q] Identify the measured phosphorylation enrichment of KDQGTYEDFVE [MYL6_Y86_YF] for EPHB1 (UniProt P54762).
[A] 0.569

[Q] Give the reported phosphorylation enrichment for KIEGVYARDET [RPL35A_Y34] (system: EPHB1 (UniProt P54762)).
[A] 0.515

[Q] Requested read-out phosphorylation enrichment, target or system EPHB1 (UniProt P54762), entry FFLGAYDRFLP [SLC22A5_Y486_V481F_YF]
[A] 0.756

[Q] Request body: readout phosphorylation enrichment, system EPHB1 (UniProt P54762), query KASIMYPSNNC [CXCL11_Y52] . Return the value.
[A] 0.528

[Q] What phosphorylation enrichment appears in the records for this sequence with EPHB1 (UniProt P54762)? AVLSLYASGCT [ACTA2_Y145_R149C]
[A] 0.825

[Q] Lab note: need phosphorylation enrichment with EPHB1 (UniProt P54762) for entry ENFDDYMKEVG [FABP4_Y20] , please look it up.
[A] 0.579

[Q] Which phosphorylation enrichment is reported with EPHB1 (UniProt P54762) for this entry: WIPIQYLIISE [NOG_Y222_P223L] ?
[A] 0.624

[Q] # value lookup — system EPHB1 (UniProt P54762), readout phosphorylation enrichment, item VFFGSYSRPFG [NKAP_Y104_YF]
[A] 0.396

[Q] Item: WVYNHYRCIIW [BRCA2_Y2624_W2626C] Test system: EPHB1 (UniProt P54762) Read-out: phosphorylation enrichment Value: ?
[A] 0.806

[Q] Could you share what phosphorylation enrichment was measured for FIPSNYVAEDR [FRK_Y104_YF] , tested on EPHB1 (UniProt P54762)?
[A] 0.386

[Q] Form field - read-out: phosphorylation enrichment; system: EPHB1 (UniProt P54762); submitted item: GDEEDYEEIPG [EGFR_opt_E_2015]
[A] 0.893

[Q] Lookup: phosphorylation enrichment / EPHB1 (UniProt P54762) / FQQLFYLLQTN [IQGAP2_Y890_YF]
[A] 0.884

[Q] Form entry - test system: EPHB1 (UniProt P54762); read-out: phosphorylation enrichment; sequence: KAPVDYIRKLQ [MITF_Y360_S357P]
[A] 0.416

[Q] Report phosphorylation enrichment for SQQTYYRVSNM [ABCD1_Y181] tested on EPHB1 (UniProt P54762).
[A] 1.93

[Q] Request: phosphorylation enrichment, test system EPHB1 (UniProt P54762), entry TTGLIYIGSHD [AASDH_Y870]
[A] 0.686
